Origin of measurements: patent US20260258156A1

Kd: recorded values
tested_on: T1, human KLK7, active form (human, UniProt P49862 30-253)
T1 construct: mature; also called hKLK7; huKLK7
assay_summary: SPR (Biacore), antibody captured on Protein A chip, KLK as analyte, single-cycle kinetics, 25 C

# binder, scale_unit, Kd
data = [
    ("KLK5/KLK7-Dual-Ab4 (antibody, V domains shown, Captured on a Protein A chip or coupled to a CM5 chip as an antibody; also called KLK5/7-Dual-Ab4) VH: QLQLQESGPGLVKPSETLSLTCTVSGGSISSLDYYWVWIRQPPGKGLEWIGSIDYSGDTYYNPSLKSRVTISVDTSKNQFSLKLSSVTAADTAVYYCARGRPLGYGARHYYYAMDVWGQGTTVTVSS VL: DIQMTQSPSSLSASVGDRVTITCRASQSISSYLNWYQQKPGKAPKLLIYSASSLQSGVPSRFSGSGSGTDFTLTISSLQPEDFATYYCQQSPYFPPLTFGGGTKVEIK", "nM", 0.002),
    ("KLK5/KLK7-Dual-Ab3 (antibody, V domains shown, Captured on a Protein A chip as an antibody; also called KLK5/7-Dual-Ab3) VH: QLQLQESGPGLVKPSETLSLTCTVSGGSISSDDYYWVWIRQPPGKGLEWIGSIDYYASTYYSPSLKSRVTISVDTSKNQFSLKLSSVTAADTAVYYCARGRPLGYGAKHYYYGMDVWGQGTTVTVSS VL: DIQMTQSPSSLSASVGDRVTITCRASQSISSYLNWYQQKPGKAPKLLIYSASSLQSGVPSRFSGSGSGTDFTLTISSLQPEDFATYYCQQSPYFPPLTFGGGTKVEIK", "nM", 0.0136),
    ("KLK5/KLK7-Dual-Ab2 (antibody, V domains shown, Captured on a Protein A chip as an antibody; also called KLK5/7-Dual-Ab2) VH: QLQLQESGPGLVKPSETLSLTCTVSGGSISSDDYYWVWIRQPPGKGLEWIGSIDYFASTYYNPSLKSRVTISVDTSKNQFSLKLSSVTAADTAVYYCARGRPLGYGARHDYYGMDVWGQGTTVTVSS VL: DIQMTQSPSSLSASVGDRVTITCRASQSISSYLNWYQQKPGKAPKLLIYSASSLQSGVPSRFSGSGSGTDFTLTISSLQPEDFATYYCQQSPYFPPLTFGGGTKVEIK", "nM", 0.0218),
    ("KLK5/KLK7-Dual-Ab1 (antibody, V domains shown, Captured on a Protein A chip as an antibody; also called KLK5/7-Dual-Ab1) VH: QLQLQESGPGLVKPSETLSLTCTVSGGSISSSDYYWGWIRQPPGKGLEWIGSIYYSGSTYYNPSLKSRVTISVDTSKNQFSLKLSSVTAADTAVYYCARGRPLGYGARHYYYGMDVWGQGTTVTVSS VL: DIQMTQSPSSLSASVGDRVTITCRASQSISSYLNWYQQKPGKAPKLLIYSASSLQSGVPSRFSGSGSGTDFTLTISSLQPEDFATYYCQQSPPFPPLTFGGGTKVEIK", "nM", 1.82),
]
